Can you tell me melting point for the items I'm about to list?

# example entries with known answers
>  <compound>
Cc1nc2cc(-c3ccc(C=C4SC(=O)NC4=O)cn3)cc(C3CCCCC3)c2o1

>  <readout value>
314 to 316 °C

$$$$
>  <compound>
Cn1c(=O)c(-c2ccc(Cl)cc2Cl)cc2c3cc(-c4csc(N)n4)ccc3n(C)c21

>  <readout value>
272 to 273 °C

$$$$
>  <compound>
CCCN(CCC)C(N)=O

>  <readout value>
69 °C

$$$$

Each of the following entries comes with a recorded value; kindly state melting point for each.
1. O=C=Nc1ccc(Oc2cc(Cl)ncn2)cc1
2. N#Cc1cnn(-c2c(Cl)cc(SC(F)(F)F)cc2Cl)c1N
3. Cc1c(-c2ccccc2)c(N2CC[C@H](N(C)C)C2)c2oc(N3CC(O)C3)nc2c1C#N
4. CCOC(=O)c1cn2c3c(cc(CN4CCOCC4)cc3c1=O)OC(F)(F)C2
5. O=C1OCCC12Sc1ccc([N+](=O)[O-])cc1C2=O (stereo unspecified)

stdout:
1: 103 °C; 2: 185 to 187 °C; 3: 219 to 221 °C; 4: 176 to 177 °C; 5: 190 to 194 °C

Each of the following entries comes with a recorded value; kindly state melting point for each.
1. O=S(=O)(c1cc(SC(F)(F)F)[nH]c1-c1ccc(Cl)cc1)C(F)(F)F
2. COc1ccc(C2=NO[C@]3(CCOC3)C2)cc1OC1Cc2ccccc2C1
3. BrCc1ccc2ccccc2n1

stdout:
118 to 122 °C
138 °C
33 to 37 °C
